# Assayed System: UniProt P45983
# Sequence (P45983 whole entry): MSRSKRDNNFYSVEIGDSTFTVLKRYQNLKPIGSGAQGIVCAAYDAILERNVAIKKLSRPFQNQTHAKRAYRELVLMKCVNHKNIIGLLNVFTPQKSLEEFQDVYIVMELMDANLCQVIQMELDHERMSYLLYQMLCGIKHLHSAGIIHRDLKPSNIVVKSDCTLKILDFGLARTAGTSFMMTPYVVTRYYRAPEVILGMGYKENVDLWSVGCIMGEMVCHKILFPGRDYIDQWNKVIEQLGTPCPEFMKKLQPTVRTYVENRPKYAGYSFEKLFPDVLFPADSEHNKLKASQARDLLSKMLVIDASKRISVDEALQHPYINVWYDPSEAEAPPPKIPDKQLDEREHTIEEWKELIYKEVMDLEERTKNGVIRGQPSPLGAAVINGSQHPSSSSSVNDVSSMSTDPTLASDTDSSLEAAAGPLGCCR
Measured Property: pIC50
One number for each entry, as −log10 of the molar value.

// fetch pIC50 given entry `COc1cc(-c2cc(=O)c3c(O)cc(O)cc3o2)cc(OC)c1O`
4.75
